# method: inhibitors of TNFa-induced NFkB p65 translocation, primary screen, imaging, HUVEC, MLSMR starter and 10KST1 sets (AID 438);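 further: compound added about 3h40 before a 20 min TNFalpha stimulation; signal is the nuclear over cytoplasmic p65 intensity ratio per well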
# run-conditions: HUVEC TNFa-induced p65 nuclear translocation; at 2 µM, stronger effect = higher value, 0% TNFa-plus-vehicle, 100% no-TNFa wells
reported-endpoint: inhibition (%)
Response body: numeric value in %, unit text excluded.

[ask] Value lookup for inhibition; key = O=C(CCNC(=O)Cn1ccc2ccccc2c1=O)NCCN1CCN(c2ccccc2F)CC1
[reply] -5.7

[ask] Another: COc1cccc(-c2cc(C(=O)Nc3cc(OC)c(OC)c(OC)c3)no2)c1
[reply] -4.5

[ask] Another: Cn1c(Cc2cccs2)nnc1SCC(=O)N1CCc2ccccc21
[reply] -1.8

[ask] Another: O=C(Cn1nnc2c(cnn2-c2ccc(F)cc2)c1=O)c1ccccc1F
[reply] 5.1

[ask] Another: C[N+]1=C2CCCCCN2C(O)(c2ccccc2)C1 (centres undefined)
[reply] -3

[ask] Another: CCOc1cc(S(=O)(=O)NCc2ccccn2)c(C)cc1C
[reply] -15.9

[ask] Another: CNC(=O)CN(c1cc(C)ccc1OC)S(=O)(=O)c1ccc(C)cc1
[reply] 5

[ask] Another: O=C(C1CCN(S(=O)(=O)N2CCC3(CC2)OCCO3)CC1)N1CCOCC1
[reply] 14.8

[ask] Another: CCSC1=C(C#N)C(c2cccc(OC)c2)CC(=O)N1 (centres undefined)
[reply] -14.3

[ask] Another: CCOC(=O)N1CCC(NC(=O)c2ccc(OC)c(CN3CC(=O)N4CCCC4C3=O)c2)CC1 (centres undefined)
[reply] -18.9

[ask] Another: COC(=O)Cc1c(C)nc2nc(-c3ccco3)[nH]n2c1=O
[reply] 1.2

[ask] Another: O=C(O)CC1CCCC(c2ccccc2)C1=O (centres undefined)
[reply] -6.5

[ask] Another: O=C(CSc1ccc(Cl)cc1)OCc1nnc(-c2ccccc2)o1
[reply] -1.1

[ask] Another: Cc1ccccc1OCCN1C(=O)NC2(CCc3ccccc32)C1=O (centres undefined)
[reply] -18.4

[ask] Another: CC(C)Cn1cc(C(=O)NCC2CCCO2)c2c3ccccc3n(C)c2c1=O (centres undefined)
[reply] 11.4

[ask] Another: Cn1nnnc1SCC(=O)NCc1ccco1
[reply] 4.6

[ask] Another: O=c1c2ccccc2nc(-c2cccc(Cl)c2)n1O
[reply] 11.6

[ask] Another: Cc1cc2ncn(N)c2cc1C
[reply] -25.9

[ask] Another: O=C(CN1C(=O)c2cccc3cccc1c23)Nc1ccccc1C(=O)NCc1ccco1
[reply] -29.6

[ask] Another: O=c1c2ccccc2cnn1-c1nc2ccccc2s1
[reply] -1

[ask] Another: CCOc1ccc(C(=O)N(CN2CCCC2=O)c2ccc(C)cc2)cc1
[reply] -1.4

[ask] Another: CC(C)Oc1cccc(-c2cc(C(=O)N3CCN(S(C)(=O)=O)CC3)c3ccccc3n2)c1
[reply] 11.6

[ask] Another: CC(C)=CCCC(C)NC(=O)NC1CCCCC1 (centres undefined)
[reply] -9.6

[ask] Another: Cc1ccc(CNC(=O)C2CCN(S(=O)(=O)c3c(C)noc3C)CC2)cc1
[reply] 4.8
